test system: ACHN; experiment: NCI tumour cell line growth inhibition, 48 h
Calls of active or inactive are those of the source. Cut-off read from the data, not from the text of the source: active = GI50 up to about 1.1 µM and inactive = higher.
readout type: GI50

Use these answered entries as a reference point.
- O=C(O)C1CC(O)CN1 (stereo not drawn): > 100 µM (inactive)
- C#CCN(Cc1ccc2nc(OC)c(OC)nc2c1)c1cc(OC)c(OC)c(OC)c1: 21 µM (inactive)

Lab note: next molecule to report on.
Problem: Fill in: GI50 of COC(=O)/C(=C/c1ccc(OC)cc1)c1cc(OC)c(OC)c(OC)c1 is ___
Result: 9.93 µM (inactive)

----------
Here, each record is paired with measured GI50 data.
tested on: NCI-H522; assay: NCI tumour cell line growth inhibition, 48 h
The source made the active and inactive calls. Cut-off read from the data, not from the text of the source: active = GI50 up to about 1.1 µM and inactive = higher.

Use these answered entries as a reference point.
* CC(=O)O[C@H]1C[C@@H](OC(C)=O)[C@@](C)(O)[C@@H]2[C@@H](OC(C)=O)[C@@]3(O)[C@H](/C=C(/CCl)[C@H]4O[C@H]4[C@@H](OC(C)=O)[C@@]12C)OC(=O)[C@@H]3C | > 25 µM (inactive)
* N/C=N/S(=O)(=O)c1ccc(NC(=O)COC(=O)c2cccc3c(=O)c4ccccc4[nH]c23)cc1 | > 100 µM (inactive)
* COc1ccc(N2C(=O)/C(=C\c3cccc(Oc4ccccc4)c3)SC2c2ccccc2)cc1 (stereo not drawn) | 8.24 µM (inactive)
* COc1c(-c2nc3ccc(N4CCN(C)CC4)nc3[nH]2)cc(OC)c2[nH]c(COC(C)=O)nc12 | 37.1 µM (inactive)
* CC1=C(C)CC2(SC1)C(=O)c1ccccc1C2=O | > 100 µM (inactive)

Problem: For NCI-H522, provide GI50 of CCOC(=O)c1cc(-c2ccc([N+](=O)[O-])cc2)c([N+](=O)[O-])[nH]1 please.
Result: 3.33 µM (inactive)

Problem: For NCI-H522, provide GI50 of Cc1coc2c1C(=O)C(=O)c1c-2ccc2c1CCCC2(C)C [TANSHINONE IIA] please.
Result: 1.54 µM (inactive)

Problem: For NCI-H522, provide GI50 of COc1cccc2c1C(=O)c1c(O)c3c(c(O)c1C2=O)C[C@@](O)(C(=O)CO)C[C@@H]3OC1CC2C(OCN3CN2COC2C(C)OC(O[C@H]4C[C@](O)(C(=O)CO)Cc5c(O)c6c(c(O)c54)C(=O)c4c(OC)cccc4C6=O)CC23)C(C)O1 (stereo partly drawn) please.
Result: 0.0218 µM (active)

Problem: For NCI-H522, provide GI50 of CC(C)(C)c1cc(C(=O)C2Cc3ccccc3C(=O)O2)cc(C(C)(C)C)c1O (stereo not drawn) please.
Result: 11.6 µM (inactive)

Problem: For NCI-H522, provide GI50 of OC(O)(C(F)(F)F)C(F)(F)F please.
Result: > 100 µM (inactive)

Problem: For NCI-H522, provide GI50 of COc1cc2c(=O)cnoc2cc1O please.
Result: > 100 µM (inactive)

Problem: For NCI-H522, provide GI50 of Cc1[nH]c(-c2ccccc2)c(-c2ccc(Cl)cc2)c1C(=O)ONC(=O)c1ccccc1 please.
Result: 2.1 µM (inactive)

Problem: For NCI-H522, provide GI50 of O=C1CCCC[C@H]1C(O)CC1CC(=O)N(c2ccccc2)C(=O)C1 (stereo partly drawn) please.
Result: > 100 µM (inactive)
